Tested on: Fibroblast
Assay: Multiplex assay against human fibroblast
Type: toxicity, cell-based
Settings: 12 h, 10 µM, compound concentration 10 uM, replicate 2
Metric: Population Apoptotic (%)
Give bare numbers, in %.

Previously resolved entries follow.
[
  {
    "Compound": "C=CC(=O)Nc1cccc(Sc2nc(Nc3ccc(N4CCN(C)CC4)cc3)ncc2Cl)c1",
    "Result": 100
  },
  {
    "Compound": "CNC(=O)Nc1ccc2c(c1)[C@@]1(CC2)OC(=O)N(CC(=O)N(Cc2ccc(F)cc2)[C@@H](C)C(F)(F)F)C1=O [A-486]",
    "Result": 33
  },
  {
    "Compound": "O=c1[nH]c2ccccc2n1C1CCN(Cc2ccc(-c3[nH]c4cc5ncnc5cc4nc3-c3ccccc3)cc2)CC1",
    "Result": 70
  }
]

Return reported Population Apoptotic (%) values for all items listed beneath this line.
1. O=c1cc(N2CCOCC2)oc2c(-c3cccc4c3sc3ccccc34)cccc12
2. COc1ccccc1CN[C@H]1C2CCN(CC2)[C@H]1C(c1ccccc1)c1ccccc1 [CP-96345]

result:
1: 31; 2: 50
